Property Label: melting point (°C)
One number for each entry, in °C.

Check out these entries, answers already filled in.
CCCNc1nc(C)c(CCO)c(=O)n1C
240
C=CCC(F)(F)C(O)C(CC(C)C)NC(=O)c1ccccc1 (stereo not given)
110
CCOC(=O)N1CCC(Nc2nc3ccccc3n2Cc2ccoc2C)CC1
150

We now examine a further compound.
Exercise: I'd like to know its melting point. The compound in question is `Cc1cc(C)c(-c2ccc3c(=O)c(C(=O)O)cn(C4CC4)c3c2C)cn1`
Solution: 217

* * *

Exercise: state measured melting point for each of the molecules provided.

The cases that follow already have their melting point on record.
CCn1cc(-c2cccc(C(F)(F)F)c2)c(=O)c(-c2cccc(C(F)(F)F)c2)c1
185 °C
CCCC(=O)Nc1nn(COCC[Si](C)(C)C)c2cc(Cl)c(Br)cc12
130 °C
CCCCCCNC(=O)CSc1nc(Cl)cc(Nc2cccc(C)c2C)n1
116 to 118 °C
Fc1ccc(-c2nnc(S)nc2-c2ccc(F)cc2)cc1
180 to 182 °C
CN(C)C(=O)c1ccccc1[N+](=O)[O-]
74 to 76 °C

Go through the list and state melting point for each entry.
1. COC(=O)C(=O)c1ccc(OCCOc2ccc3ccncc3c2)cc1
2. Cc1c(-c2ccccc2)[nH]c(=O)n1C1CCN(Cc2cccc(I)c2)CC1
3. COC(=O)c1ccc2c(c1)C(C(=O)O)c1ccccc1CO2 (centres undefined)
4. CC(C)(C)C(=O)Oc1ccc(CCNC(=O)c2cccnc2)cc1OC(=O)C(C)(C)C
5. Cc1nc2c(N)nc3ccccc3c2n1CCCCCNC(=O)c1ccccc1

Solution:
1. 144 to 145 °C
2. 269 to 271 °C
3. 223 to 224 °C
4. 112 to 114 °C
5. 110 to 120 °C

* * *

Property Label: melting point

Example entries begin here.
CC(C)(C)OC(=O)C(=O)C=[N+]=[N-]
100 °C
CCOC(=O)C1=C(C(F)(F)F)Nc2n[nH]cc2C1c1ccc(Cl)cc1 (stereo not given)
176 to 178 °C

Could you report melting point for every entry in the following list?
1. CCCc1cc2c(=O)n3cc(C(=O)O)ccc3nc2s1
2. CNC(=O)N1N=C(c2ccc([N+](=O)[O-])cc2)c2cc(Br)ccc2CC1C (stereo not given)
3. C=CCc1cc(C(=O)OCC)ccc1OCC1(O)CN2CCC1CC2 (stereo not given)

Solution:
["250 to 254 °C", "197 to 200 °C", "143 to 145 °C"]

* * *

Property Label: melting point

NCCN1CCC(Nc2nc3cccnc3n2Cc2ccccn2)CC1
151 °C

Please go through the list and note melting point for each compound.
1. O=C(CCl)Nc1ccc2c(c1NC(=O)c1ccc(C(F)(F)F)cc1)C(=O)c1ccccc1C2=O
2. COC(=O)c1ccc(Cc2cn(C(C)C)c3ccc(C=CCC(=O)N(C)C)cc23)c(OC)c1
3. C=C1C(O)C(CO)OC1n1ccc(NC(=O)c2ccccc2)nc1=O (stereo not given)
4. CSC1=NC(=O)C(=C(C)c2cc(C(C)(C)C)c(O)c(C(C)(C)C)c2)S1

Solution:
203 to 204 °C
118 to 120 °C
> 300 °C
206 to 209 °C

* * *

Could you please report measured melting point for the items listed next?

FC(F)(F)CN1CCC(n2ccc3ccccc32)CC1
79 to 81 °C
N#CC(Sc1ccc(Cl)cc1)=C1SCCN1c1ccccc1
144 to 146 °C
CCOC(=O)c1oc(-c2ccccc2)cc(=O)c1Cl
121 °C

The following compounds each have a reported value; give each one's melting point.
1. OC(CCl)(Cc1ccc(Cl)cc1Cl)c1ccc(-c2ccccc2)cc1 (stereo unspecified)
2. O=C(O)c1ccccc1C(=O)NNC(=S)Nc1ccccc1
3. CN1CC(Cn2cnnn2)CC2c3cccc4[nH]cc(c34)CC21 (stereo unspecified)
4. Nc1c(Cl)cc(C(=CC(=O)N2CCOCC2)c2ccc(Cl)cc2)cc1Cl
5. CC(C)(CCCCCC(=O)CCCCCC(C)(C)C(=O)O)C(=O)O

Solution:
1. 84 °C
2. 149 to 151 °C
3. 206 to 209 °C
4. 140 to 144 °C
5. 74.5 to 76 °C

Quick batch: melting point for everything below.
1. CCOC(=O)c1oc(C)c(O)c1O
2. Cn1c([N+](=O)[O-])cnc1CSc1ccccn1

Solution:
120 to 121 °C
108 °C

Exercise: Quick one: melting point of CC1(C)COc2cc(F)c(F)cc2C(O)(c2ccccn2)C1 (stereo unspecified) ?
Solution: 93 °C

* * *

Property Label: melting point

# annotated cases, reported melting point shown
COc1ccc(C(O)(Cc2ccncc2)c2cccs2)cc1OC1CCCC1 (stereo not given)
57 to 67 °C
Cc1c(CC(=O)O)oc2ccc(-c3ccccc3)cc12
173 to 174 °C
CC(C(=O)O)(c1ccc(N2CCCC2)cc1)c1ccc(N2CCCC2)cc1
174 to 176 °C

Hello, I would appreciate it if you could give melting point for each entry below.
1. CCCCc1nc(C(O)C(C)(C)C)c(C(N)=O)n1Cc1ccc(-c2ccccc2-c2nnn[nH]2)cc1 (stereo not given)
2. CCN1c2ncc(CCc3ccnc(CO)c3)cc2C(=O)N(C)c2ccc(Cl)nc21
3. O=S1(=O)CCC(=NO)C1=NO
4. COCCOC(=O)CS(=O)C(C)c1ccc(-c2ccccc2F)cc1 (stereo not given)
5. COc1cc(C=CC(=O)c2ccc([N+](=O)[O-])cc2)cc(OC)c1
6. CCC(=O)c1c(C)[nH]c(-c2ccccc2)c1N
7. O=S(CSc1ccc(Cl)cc1)c1ccccc1 (stereo not given)

Solution:
1. 157 to 160 °C
2. 133 to 134 °C
3. 181 °C
4. 65 to 67 °C
5. 166 °C
6. 166 to 168 °C
7. 70 to 71 °C

* * *

Property Label: melting point

COc1c(C=CC(=O)O)cccc1Oc1ccccc1Cl
145 to 147 °C
CN(C)CC#Cc1ccc(C(CC2CCCC2)C(=O)Nc2nccs2)cc1 (configuration not stated)
164 to 167 °C
CN1C(=N)N(c2ccc(Cl)cc2)CC1=O
182 to 184 °C
CCC(CC)(CC(=O)Nc1cccc(/C=C/c2nc(C3CCCC3)cs2)c1)C(=O)O
172 to 174 °C
CCOC(=O)c1cn2c3c(ccc(OC)c3c1=O)OCC2C (configuration not stated)
165 to 168 °C
ClCc1c(Br)c(Br)c(CCl)c(Br)c1Br
232 to 233 °C
CC1(C)OC2OC(C3NC(=O)CC3O)C(O)C2O1 (configuration not stated)
263 to 265 °C
COC(=O)c1ccc(-c2cc(C)c3[nH]c(=O)ccc3c2)cc1
293 °C
CC1(C)CCC(C)(C)c2cc(NCC(=O)O)ccc21
> 360 °C
O=P1(c2ccccc2)OCC2(CO1)COP(=O)(c1ccccc1)OC2 (configuration not stated)
264 to 265 °C

Would you mind listing melting point for each of the following compounds?
1. c1ccc(C(c2ccccc2)(c2ccccc2)N2CCCCC2)cc1
2. CC(=O)OCC1OC(OC2OC(CO)C(O)C(O)C2O)C(OC(C)=O)C(OC(C)=O)C1OC(C)=O (configuration not stated)

Solution:
156 to 158 °C
120 °C

Would you mind listing melting point for each of the following compounds?
1. COC(=O)c1cc(O)c([N+](=O)[O-])cc1C(=O)OC
2. CCc1nc2c(c(=O)n(C)c(=O)n2C)n1CCCOc1ccccc1
3. N=C(Nc1ccc(CCCC(=O)Nc2ccccc2)cc1)N1CCCC1

Solution:
82 to 85 °C
107 to 108 °C
164 to 165 °C

* * *

Can you tell me melting point for the items I'm about to list?

Respectfully, I request melting point for each entry included below.
1. CCCCc1nc(O)cc(CC(=O)OC)n1
2. CC(=O)Nc1ccc2nc3n(c2c1)CCC3
3. CC(=O)N(C)c1c(I)c(N)c(I)c(C(=O)N(C)C)c1I
4. C=C[C@@H](C)[C@H]1CC[C@H]2[C@@H]3CCC4=CC(=O)CC[C@]4(C)[C@H]3CC[C@]12C
5. COc1ccc(CCNC(=O)C(N)=O)cc1OC1CCCC1

Solution:
83 to 85 °C
250 to 255 °C
235 to 240 °C
138 to 139 °C
175 to 176 °C

* * *

Could you please report measured melting point for the items listed next?

Please review the entries below; each comes with its answer.
COc1cc(CNC(=O)c2ccc3c(c2)c(=O)n(Cc2ccccc2)c(=O)n3C)ccc1O
183 °C
Cc1nc2c(N)nc3ccccc3c2n1CCCNC(=O)c1ccccc1
230 to 231 °C
O=C1CC(O)c2ccc(F)cc21 (stereo not given)
73 to 76 °C
CC(Cn1ncnn1)n1nnc2cc3c(cc2c1=O)OC1COCCN1C3=O (stereo not given)
188 to 190 °C

From here, focus on the item given below.
Exercise: Entry under review: `O=C(O)CCc1cccc2c1NC(=O)CC2` . Reported melting point?
Solution: 164 to 165 °C
